- system under test: Adrenergic receptor alpha-2 (Rattus norvegicus) (UniProt P22086+P19328+P22909)
- experimental details: Percent displacement of [3H]clonidine from alpha-2-adrenoceptor in rat brain homogenates at 10E-6 M; Activity of less than 50%.
- Format: tissue-based
Calls of active or inactive are those of the source. The rule behind the calls is not given here.
measured endpoint: Displacement

Answered examples (4):
COc1nc(OC)nc(N2CCN(c3nc(N)c4cc(OC)c(OC)cc4n3)CC2)n1 : inactive
COc1cc2nc(N3CCN(c4ccnc(Oc5ccccc5)n4)CC3)nc(N)c2cc1OC : inactive
COc1cc2nc(N3CCN(c4nc(Oc5ccccc5)nc(Oc5ccccc5)n4)CC3)nc(N)c2cc1OC : inactive
COc1ccnc(N2CCN(c3nc(N)c4cc(OC)c(OC)cc4n3)CC2)n1 : inactive

Next compound, please.
Give the measured Displacement for `COc1cc2nc(N3CCN(c4ccc(OC(C)C)nn4)CC3)nc(N)c2cc1OC`
inactive

The measured values listed here are drawn from ChEMBL document CHEMBL1123613.
